Molecular target: T1, human PD-L2 (full-length, on cells) (human, UniProt Q9BQ51 20-273)
T1 construct: whole, on cells; CHO-K1 cells stably expressing full-length human PD-L2; also endogenous on NCI-H226 and transfected in Jurkat cells; also called hPD-L2; CHO-K1/hPD-L2
T1 sequence (looked up): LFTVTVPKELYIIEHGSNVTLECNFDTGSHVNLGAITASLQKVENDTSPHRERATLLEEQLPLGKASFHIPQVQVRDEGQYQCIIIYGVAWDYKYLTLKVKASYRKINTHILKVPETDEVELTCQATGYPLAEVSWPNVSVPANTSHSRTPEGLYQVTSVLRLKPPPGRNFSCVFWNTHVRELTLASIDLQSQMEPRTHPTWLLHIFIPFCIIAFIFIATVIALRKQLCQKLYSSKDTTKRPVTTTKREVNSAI
Assay: hybridoma supernatant screen on cells expressing human PD-L2

binder: 7H5-C5 (antibody, V domains shown, Both formats under this entry) VH: QVQLVESGGGLVKPGGSLRLSCAASGFSLSDYYMSWTRQAPGRGLEWVSFISSSGSTIYYVDSVKGRFTISRDHAKNSLYLQINSLRAEDTAVYYCARAQWLPDFDYWGQGTLVTVSS VL: QSALTQPPSASGSPGQSVTISCTGTSSDVSGYNYVSWYQHHPDKAPKLLIYEVNKRPSGVPARFSGSKSGNTASLTVSGLQAEDEADYYCTSFADNNNVVFGGGTKLTVLG
binding result: binds
//
binder: 8B5-B1 (antibody, V domains shown, Both formats under this entry) VH: EVQLLESGGGLVQPGGSLKLSCAASGFTFSSYAMFWVRQAPGEGLAWVSAITGSGDHTYYADSVKDHFTISRDNSKNTLYLQMNSLKAEDTAVYYCAKDASGNSYGFPYWYFDLWGRGTLVTVSS VL: QSALTQPASVSGSPGQSITISCTGTSSDVAGYNFVSWYQHHPGKTPKLMIYDVTNRPSGVSTRFSGSKSGNTASLTISGLQAEDEADYYCSSFTSATTLVFGGGTKLTVLG
binding result: binds
//
binder: 12A1-D4 (antibody, V domains shown, Both formats under this entry) VH: QVQLQESGPGLVKPSGTLSLTCAVSGGSISSNNWWSWVRQPPGKGLEWIGEIFHVGSTNYNPSLKSRVTISVDKSKNQFSLKLSSLTAADTAVYYCARMVGATGHYYGMDVWGQGTTVTVSS VL: DIQLTQSPSFLSASVGDRVTITCRASQGISSSLAWYQQKPGKAPKFLIYAASTLQSGVPSRFSGSGSGTEFTLTISSLQPEDFATYYCQQLNSYPKSWTFGQGTKVEIK
binding result: binds
//
binder: 19B3-B3 (antibody, V domains shown, Both formats under this entry) VH: QVQLVQSGAEVKKPGASVKVSCMASGYTFTNYAIHWVRQAPGQRLEWMGWINTGLGKPKYSQMFQDRVTITRDTSASTASMELSGLRSDDTAVYYCARVGWELYFDYWGQGTLVTVSS VL: DIQMTQSPSTLSASVGDRVTITCRASQSISSLLAWYQQKPGKAPKLLIYKASSLESGVPSRFSGSGSGTEFTLTISSLQPDDFATYFCQQYNSYWTFGQGTKVEIK
binding result: binds
